Where these numbers come from: patent US11091497B2

For each record, write down the corresponding pEC50.
Target: human kappa opioid receptors (Homo sapiens, UniProt P41145)
Construct: expressed in transfected cells; host or cells: U2OS
Sequence (P41145 whole entry): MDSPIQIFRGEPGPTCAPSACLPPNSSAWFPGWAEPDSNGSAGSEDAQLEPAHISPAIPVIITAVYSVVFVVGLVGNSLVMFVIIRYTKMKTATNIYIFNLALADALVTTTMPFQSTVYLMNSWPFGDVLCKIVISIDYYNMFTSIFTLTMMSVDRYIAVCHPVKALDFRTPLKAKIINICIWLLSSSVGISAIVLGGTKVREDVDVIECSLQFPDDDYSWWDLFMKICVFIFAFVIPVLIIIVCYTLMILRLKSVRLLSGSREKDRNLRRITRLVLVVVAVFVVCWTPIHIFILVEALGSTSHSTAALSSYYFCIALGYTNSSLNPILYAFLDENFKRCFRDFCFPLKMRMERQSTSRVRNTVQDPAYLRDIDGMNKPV
Assay: [35S]GTPγS stimulation, membranes from U2OS cells
Format: biochemical
// field semantics: pEC50 = negative decimal log of concentration (mol/L)

Any idea what pEC50 was measured for Cc1ccc(CC(=O)N2CCN[C@@H]3COC[C@H](N4CCCC4)[C@H]32)cc1Cl (racemic) ? 7.21

Any idea what pEC50 was measured for O=C(Cc1ccc(Cl)c(Cl)c1)N1CCN(Cc2ccccc2)[C@@H]2COC[C@H](N3CCCC3)[C@H]21 (racemic) [Example 5A53] ? 7.92

Any idea what pEC50 was measured for O=C(Cc1ccc(Cl)c(Cl)c1)N1CCN[C@@H]2COC[C@H](N3CCCC3)[C@H]21 (racemic) ? 7.20
